This collection of values is drawn from ChEMBL document CHEMBL4825738.

- Test system: B16-F10-luc2
- MEASUREMENT_NOTES: Cytotoxicity against mouse B16-F10-Luc2 cells expressing EGFR measured after 72 hrs in absence of cetuximab by resazurin assay
- Assay type: functional, cell-based
- MEASUREMENT_CONDITIONS: B16-F10-luc2, 72 h
EXPERIMENTAL_READOUT: pIC50
API: returns pIC50 as number; meaning -log10 of concentration in mol/L.

Specify pIC50 for COc1cccc2c1C(=O)c1c(O)c3c(c(O)c1C2=O)C[C@@](O)(C(=O)CO)C[C@@H]3O[C@H]1C[C@H](N)[C@H](O)[C@H](C)O1 and stop.
7.40

###

- System: B16-F10-luc2
- MEASUREMENT_NOTES: Cytotoxicity against mouse B16-F10-Luc2 cells expressing human EGFR measured after 72 hrs in presence of AB-TCO4 conjugates by resazurin assay
- Type: functional, cell-based
- MEASUREMENT_CONDITIONS: B16-F10-luc2, 72 h
EXPERIMENTAL_READOUT: IC50 (µM)
Kindly provide the numeric value in µM only, without the unit symbol.

System B16-F10-luc2. Read-out IC50. Item COc1cccc2c1C(=O)c1c(O)c3c(c(O)c1C2=O)C[C@@](O)(C(=O)CO)C[C@@H]3O[C@H]1C[C@H](NC(=O)OCc2ccc(N=[N+]=[N-])cc2)[C@H](O)[C@H](C)O1 . Report value.
2.09
